test system: Plasmodium falciparum; test: NOVARTIS: Inhibition of Plasmodium falciparum W2 (drug-resistant) proliferation in erythrocyte-based infection assay; type: functional, organism-based; settings: Plasmodium falciparum, W2; read-out: EC50
Please go through the items and note down their EC50.
Express your answer in µM, writing the number without its unit.

Look at this molecule and give its reported EC50. O=C(CN1CCCC1)Nc1nc(-c2ccc3c(c2)CCN3S(=O)(=O)c2ccccc2)cs1
1.27

May I ask what EC50 has been recorded for Cc1ccc2ccc(C(Nc3ccccn3)c3ccc(Br)cc3)c(O)c2n1 (stereo not drawn) ?
0.8

# lookup: EC50 of O=C(NNC(=O)c1csnn1)c1ccc(C(F)(F)F)cc1
0.792

Consider the molecule shown here: CC1=NOC(=O)C1=Cc1cccs1 What is its recorded EC50?
0.776

What value of EC50 has been recorded for this entry: COc1cc([N+](=O)[O-])ccc1NC(=O)CN1CCN(C(=O)c2ccco2)CC1
0.832

Record request: EC50 value, item CCCCOc1nc(-c2ccc(OC)cc2)n(C(=O)c2ccccc2OC)n1
0.717

Field request: EC50 | item: CC(=O)c1ccc(OCc2cc(C(=O)N3CCCCC3c3cccnc3)no2)cc1 (stereo not drawn)
1.37

Recorded EC50 of Cc1cc(S(=O)(=O)N2CCN(Cc3ccccc3)CC2)ccc1-n1cnnn1 , please.
1.41

* * *

assay: NOVARTIS: Cytotoxicity against human hepatocellular carcinoma cell line (Huh7); assay type: toxicity, cell-based, Huh-7; conditions: Huh7 cells (hepatocellular carcinoma cell line)
I'd appreciate it if you could supply CC50 values for the items below.

What does the data say about its CC50? Entry: C[C@H]1[C@@H](O)O[C@@H]2O[C@@]3(C)CC[C@H]4[C@H](C)CC[C@@H]1[C@@]24OO3
44.9 µM

Field request: CC50 | item: CC(C)NCC(O)Cn1c2ccc(Br)cc2c2cc(Br)ccc21 (configuration not stated)
3.36 µM

// lookup CC50 for COc1ccc(Nc2nc(N3CCCC3)c3ccccc3n2)cc1
10.2 µM

# CC50 lookup, item CCCOC(=O)C1=C(C)NC2=C(C(=O)CC(c3ccc(Cl)cc3)C2)C1c1ccc(Br)cc1 (configuration not stated)
> 100 µM

Sample O=C(Nc1ccc(C2=NCCN2)c(Cl)c1)c1cccc(C(=O)Nc2ccc(C3=NCCN3)c(Cl)c2)c1 — what was its CC50?
> 10 µM

Which CC50 value is on record for CN1C[C@@H](CSc2ccccn2)C=C2c3cccc4[nH]cc(c34)C[C@H]21 ?
> 10 µM

Name the recorded CC50 for COc1ccc(N(CCCNC(=O)CCl)C(=O)Nc2cccc(Cl)c2)cc1 .
> 10 µM

Quick check: CC50 of CC(C)CCn1c(NCc2ccccc2)nc2c1c(=O)n(CC(N)=O)c(=O)n2C ?
> 10 µM

Query: CC50; subject: O=C(C=Cc1ccccc1)Nc1ccc(-c2nc3cc(NC(=O)C=Cc4ccccc4)ccc3[nH]2)cc1
5.7 µM

Value lookup for CC50; key = CC(C)CNC(=O)c1cnc(NCCCN2CCCCC2C)nc1NCC1CCCCC1 (configuration not stated)
> 10 µM

# CC50 lookup, item Cc1c(Cl)cccc1N1C(=O)C2C3c4ccccc4C(c4ccccc43)C2C1=O (configuration not stated)
> 10 µM

Record request: CC50 value, item FC(F)(F)c1cccc(-c2cc(NCCCn3ccnc3)nc(-c3ccncc3)n2)c1
> 7.72 µM

Endpoint output: CC50 of O=C1CN(C(=O)c2cc([N+](=O)[O-])c(N3CCCCC3)c([N+](=O)[O-])c2N2CCCCC2)c2ccccc2N1 . Value?
50.4 µM

Query: CC50; subject: COc1cc(C(=O)NC2CC3CCC(C2)N3C2CC2)cc(OC)c1OC (configuration not stated)
> 100 µM

Fill blank: measured CC50 of the compound O=C(NNc1nc2ccccc2nc1Cl)Nc1ccc(Cl)cc1 is ____.
7.76 µM

Find the recorded CC50 belonging to CCOP1(=O)COc2ccccc2OC1 and report it.
> 10 µM

Entry under review: Cc1ccc(Nc2nc(N)c3ccccc3n2)cc1Cl . Reported CC50?
8.92 µM

Request the reported CC50 associated with N#CC(c1ccc(C(F)(F)F)cc1)c1ccc2c(C(F)(F)F)cc(C(F)(F)F)nc2n1 (configuration not stated)
2.51 µM

// CC50 lookup, key: COC(=O)C1=C(C)NC(=Cc2cc(C)n(-c3ccccc3F)c2C)C1=O
> 100 µM

Which CC50 is listed for CCOC(=O)c1cccc(NC(=O)CCn2c(-c3ccc(F)cc3)cc(C(=O)OCC)c2C)c1 ?
> 100 µM

Param item = CN(C)CCNCc1cc(-c2ccnc3cc(Cl)ccc23)ccc1O ; retrieve measured CC50.
45.6 µM

Look up CC50 for this compound: CCOCCCNc1nc2cc(OC)c(OC)cc2c2nc(-c3ccccc3)nn12
> 100 µM
